target: PCSK9/LDLR interaction (Homo sapiens); test: Recombinant cell based assay: LDLR upregulation in HEK293 cells transfected with LDLR and PCSK9; set-up: the human full-length PCSK9 was cloned; expressed in transfected cells; host or cells: HEK-293T; details: HEK293 cells transfected with LDLR and PCSK9; compounds 1-50 uM, 43 hours incubation; read-out: EC50 of LDLR up-regulation
Sequence (Q8NBP7 153-692): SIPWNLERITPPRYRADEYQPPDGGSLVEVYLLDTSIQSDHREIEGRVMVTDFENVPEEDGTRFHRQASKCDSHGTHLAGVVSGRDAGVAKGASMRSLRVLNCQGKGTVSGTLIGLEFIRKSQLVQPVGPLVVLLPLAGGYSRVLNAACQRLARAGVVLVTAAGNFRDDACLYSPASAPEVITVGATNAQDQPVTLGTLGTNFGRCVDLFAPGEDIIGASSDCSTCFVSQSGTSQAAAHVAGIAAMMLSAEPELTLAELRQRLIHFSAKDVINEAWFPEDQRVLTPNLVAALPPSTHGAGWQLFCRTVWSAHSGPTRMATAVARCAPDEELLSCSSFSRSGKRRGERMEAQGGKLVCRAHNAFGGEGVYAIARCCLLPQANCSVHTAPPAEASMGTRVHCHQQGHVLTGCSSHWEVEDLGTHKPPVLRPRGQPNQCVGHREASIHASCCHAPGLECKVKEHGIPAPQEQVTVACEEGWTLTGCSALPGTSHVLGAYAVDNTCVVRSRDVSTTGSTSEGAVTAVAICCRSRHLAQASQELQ
Sequence (Q8NBP7 31-152 partner limits assumed): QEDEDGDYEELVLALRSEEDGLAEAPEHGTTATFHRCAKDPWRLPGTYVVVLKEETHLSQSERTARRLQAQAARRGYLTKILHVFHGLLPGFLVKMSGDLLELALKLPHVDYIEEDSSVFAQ
Entries and their measured pEC50 follow.
Kindly note that pEC50 refers to -log10 of the concentration in mol/L and answer with the value alone.

Cc1cc(C(=O)C2=C(O)C(=O)N(CCCN3CCOCC3)C2c2ccncc2)ccc1OCc1ccccc1 (centres unmarked) | 5.51

Query :: What does the data say about its pEC50? Entry: `CC(C)(C(=O)NCc1ccco1)n1cc(NC(=O)c2cccnc2)cn1`
Result :: 5.46
